Recorded composite z-score, one value per entry.
Test system: Chordin-like protein 2 (CHRDL2)
Assay: CHRDL2 small-molecule binders, primary screen, biochemical, small-molecule microarray, 635 nm fluorescence (AID 1126);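 note: printed compound slides probed with Chrdl2 protein at 4 µg/mL for 1 h at 4 C; score merges 667 nm emission intensity with signal to noise over three replicate slides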
Conditions: small-molecule microarray binding, fluorescence 635 nm; higher = more signal
measurementType: composite z-score

sampleSmiles	measurementType	quantitativeResult
COc1ccc([Si](C)(C)[C@@H]2[C@@H](CCn3cc([C@H](O)c4ccccc4)nn3)O[C@]3(C(=O)N(C)c4c(Br)cc(C)cc43)[C@H]2C)cc1	composite z-score	-0.254
COC(=O)C(CC#Cc1ccc2c(c1)[C@]1(C(=O)N2)[C@H](c2ccccc2OCCO)N2[C@H](c3ccccc3)[C@H](c3ccccc3)OC(=O)[C@H]2[C@@H]1C(=O)N1CCCCCCC1)C(=O)OC	composite z-score	1.66
Cc1ccc(N2C(=O)c3ccccc3[C@](C)(C(=O)NC3CC3)[C@@H]2c2ccc(CO)cc2)nc1	composite z-score	0.407
COc1ccc(C(=O)Nc2cccc(CN3C(=O)[C@@]4(O[C@@H](CCO)[C@H]([Si](C)(C)c5ccc(OC)cc5)[C@H]4C)c4ccccc43)c2)cc1	composite z-score	-0.143
CCCNC(=O)[C@@]1(Sc2ccc(C)cc2)CC(=O)N(Cc2cc(C(F)(F)F)cc(C(F)(F)F)c2)[C@@H]1c1ccc(CO)cc1I	composite z-score	-0.605
COCCCNC(=O)[C@@]1(C)c2ccccc2C(=O)N(Cc2cc(F)cc(C(F)(F)F)c2)[C@H]1c1ccc(CO)cc1	composite z-score	-1.94
CC(C)(C)OC(=O)CC[C@@]1(C(=O)NCc2ccccc2)N=C(c2ccc(OCCCO)cc2)O[C@@H]1c1ccccc1CN=[N+]=[N-]	composite z-score	-0.521

====

Tested on: PRMT1 (protein arginine N-methyltransferase 1)
Test: PRMT1 binders on small-molecule microarrays, primary screen, biochemical, small-molecule microarray, 635 nm fluorescence (AID 1088);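 note: binding of Prmt1 protein to compounds spotted on small-molecule microarray slides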
Conditions: small-molecule microarray binding, higher = more signal
measurementType: composite z-score

sampleSmiles	assaySystem	measurementType	quantitativeResult
COCCCNC(=O)[C@@]1(CCS(=O)(=O)c2ccccc2)N=C(c2ccc(OCCCO)cc2)O[C@H]1c1ccccc1CN=[N+]=[N-]	PRMT1 (protein arginine N-methyltransferase 1)	composite z-score	1.54
CCCCC(=C=CC[C@@H](O)c1ccc(OCCO)cc1)C[C@@H](O)c1cc(Cl)cc(Cl)c1O	PRMT1 (protein arginine N-methyltransferase 1)	composite z-score	0.21
CN(C)CCCC[C@@H]1NC(=O)[C@@H]2C[C@H](C(=O)NCCCCCNC(=O)CS)[C@H](c3cccc(OCCO)c3)N2C1=O	PRMT1 (protein arginine N-methyltransferase 1)	composite z-score	1.07
CC(C)[Si](C#C[Si](C(C)C)(C(C)C)C(C)C)(O[C@H](C)c1cn([C@H](C)c2ccccc2)nn1)C(C)C	PRMT1 (protein arginine N-methyltransferase 1)	composite z-score	1.18
CCCCC(=C=CC[C@H](O)c1cccc(OCCO)c1)CCO	PRMT1 (protein arginine N-methyltransferase 1)	composite z-score	-0.19
COC(=O)C(CC#Cc1ccc2c(c1)[C@]1(C(=O)N2)[C@H](C(N)=O)[C@H]2C(=O)O[C@H](c3ccccc3)[C@H](c3ccccc3)N2[C@@H]1c1ccc(O)cc1)C(=O)OC	PRMT1 (protein arginine N-methyltransferase 1)	composite z-score	-0.95
CC(C)(C)OC(=O)CC[C@]1(C(=O)NCc2ccccc2)N=C(c2ccc(OCCCO)cc2)O[C@H]1c1ccccc1N=[N+]=[N-]	PRMT1 (protein arginine N-methyltransferase 1)	composite z-score	1.55

====

Assay: cytotoxicity in PAX8-dependent RMG-1 cells, dose response, cell-based, cherry-pick (AID 687029);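 note: cells exposed to compound for 96 hours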
Settings: RMG-1 viability, CellTiterGlo ATP luminescence, 96 h; series mostly up to 35 µM
Measured potencies and affinities stand elsewhere. The source made the active and inactive calls.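 The calls were made as follows: active = signal drop whose fitted half-maximal concentration is at most twice the top valid dose, in every test run; inconclusive = mixed calls across runs, poor fit, or flat 30 to 70% inhibition; inactive = wrong direction, flat within 30%, or potency beyond limit.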

compound	activity change, negative = inhibition
COc1cccc(-c2ccc3c(c2)[C@H]2[C@H](CCN2S(=O)(=O)c2ccccc2OC)[C@@H](CO)N3C)c1	inactive
CCCNC(=O)Nc1ccc2c(c1)OC[C@@H](C)N(Cc1ccc(-c3ccccn3)cc1)C[C@@H](C)[C@H](OC)CN(C)C2=O	inactive
Cc1cc(NC(=O)CCCS(=O)(=O)c2nc(-c3cccs3)cc(C(F)(F)F)n2)no1	inactive
N#C[C@H]1[C@H](c2ccc(C#CC3CCCCC3)cc2)[C@H](CO)N1C(=O)Nc1ccc(F)cc1	inactive
Fc1ccc(CSc2ccc(-c3ccco3)nn2)cc1	inactive
C[C@@H]1CN([C@H](C)CO)C(=O)c2cc(NS(=O)(=O)c3ccc(F)cc3)ccc2O[C@@H](C)CCCCO[C@H]1CN(C)Cc1ccc(C(F)(F)F)cc1	inactive
CC[C@@H](C)[C@H](CNC)NC[C@@H](Cc1cccc2ccccc12)NCCc1cccc(C(F)(F)F)c1	inactive
C[C@H](O)C#Cc1ccc([C@@H]2[C@@H](CO)N3CCCCN(S(=O)(=O)c4ccccc4)C[C@H]23)cc1	inactive
O=C(Nc1ccc([N+](=O)[O-])cn1)c1cc(-c2cccc(Br)c2)nc2ccccc12	inactive
NC(=NCCCCCCN=C(N)/N=C(\N)Nc1ccc(Cl)cc1)/N=C(\N)Nc1ccc(Cl)cc1	inactive
COC(=O)[C@@H]1Cc2c([nH]c3ccccc23)C(C)(C)N1C(=O)CCl	inactive
CCCCCC(=O)N/N=C(\C)c1ccc(N2CCCCC2)cc1	inactive
C=C1CC(Cn2cc(Br)c(=O)[nH]c2=O)(c2ccc(-c3ccccc3)cc2)OC1=O (stereo not given)	inactive
Cc1ccc(S(=O)(=O)N[C@@H]2C=C[C@@H](CC(=O)N3CCC(Cc4ccccc4)CC3)O[C@@H]2CO)cc1	inactive
CC(=O)Nc1ccc(S(=O)(=O)c2ccnc3cc(Cl)ccc23)cc1	inactive
CSc1ccc(COC(=O)c2cc([N+](=O)[O-])ccc2N2CCOCC2)cc1	inactive
CC(C)CC#Cc1ccc2c(c1)O[C@H](CN(C)S(=O)(=O)c1ccc(F)cc1)[C@H](C)CN([C@@H](C)CO)S2(=O)=O	inactive
CC(C)(C)N(Cc1ccc2c(c1)OCO2)C(=O)/C=C\S(=O)c1ccccc1 (stereo not given)	inactive
CCN1CCN(Cc2ccc(NC(=O)c3cc(NC(=O)C(=O)c4c[nH]c5ccccc45)cc(OC)c3)cc2C(F)(F)F)CC1	inactive
O=C(Cn1cc(C(F)(F)F)ccc1=O)Nc1ccc2c(c1)OCO2	inactive

====

Biological target: Fibroblast growth factor 10 (Homo sapiens)
Test: FGF10 binders on small-molecule microarrays, primary screen, biochemical, small-molecule microarray, 635 nm fluorescence (AID 1102)
Details: FGF10 binding, fluorescence 635 nm, higher = more signal
Form field: composite z-score (one value per entry).

compound	composite z-score
CC(C)CCC[C@@H](C)[C@H]1CC[C@@]2(C)C3=C(CC[C@]12C)[C@@]1(C)CC[C@H](OC(=O)CCl)C(C)(C)C1CC3 (stereo partly drawn)	0.471
CCN(CC)c1ccc(N2CC=CC34O[C@@H]5C=CCOC(=O)[C@@H]5[C@H]3C(=O)N(C(CO)C(C)C)[C@@H]4C2=O)cc1 (stereo partly drawn)	-0.608
CCCCC(=C=CC[C@@H](O)c1ccc(OCCO)cc1)C[C@@H](O)c1cc(Cl)cc(Cl)c1O	0.697
CO[C@H]1O[C@H](CO)[C@@H](OC(=O)Nc2ccccc2)[C@H](OC(=O)Nc2ccccc2-c2ccccc2)[C@H]1OC(=O)Nc1ccccc1-c1ccccc1	0.626
COCCOC(=O)N1C(=O)[C@@]2(c3cc(C#CC4(O)CCCCCC4)ccc31)[C@H](C(=O)NC[C@H](O)c1ccccc1)[C@H]1C(=O)O[C@H](c3ccccc3)[C@H](c3ccccc3)N1[C@@H]2c1ccccc1OCCO	1.15
C[N+](C)(C)CCCCNC(=O)[C@@H]1C[C@@H]2C(=O)NCC(=O)N2[C@@H]1c1cccc(OCCO)c1	1.16
COC(=O)C(CC#Cc1ccc2c(c1)[C@]1(C(=O)N2)[C@H](C(N)=O)[C@H]2C(=O)O[C@H](c3ccccc3)[C@H](c3ccccc3)N2[C@@H]1c1ccc(O)cc1)C(=O)OC	-0.519
CC(C)[Si](C#C[Si](C(C)C)(C(C)C)C(C)C)(O[C@H](C)c1cn([C@H](C)c2ccccc2)nn1)C(C)C	0.597
C/C=C/[C@@H](CCn1cc(CCO[Si](C(C)C)(C(C)C)C(C)C)nn1)[Si](C)(C)c1ccc(OC)cc1	-1.03
COc1ccc(CCNC(=O)[C@@]2(Sc3ccc(C)cc3)CC(=O)N(Cc3ccccc3)[C@@H]2c2ccc(CO)cc2I)cc1	-0.553
CC(C)(C)OC(=O)CC[C@]1(C(=O)NCc2ccccc2)COC(c2ccc(OCCCO)cc2)=N1	0.361
Cc1ccc(N2C(=O)c3ccccc3[C@](C)(C(=O)NCC(F)(F)F)[C@@H]2c2ccc(CO)cc2)nc1	-0.975
CC(C)(C)OC(=O)CC[C@@]1(C(=O)N2CCOCC2)N=C(c2ccc(OCCCO)cc2)O[C@@H]1c1ccccc1	0.728
COc1ccc([Si](C)(C)[C@H]2[C@H](CC(=O)N3Cc4ccccc4C[C@H]3CO)O[C@@]3(C(=O)N(Cc4cccc(N5C(=O)COc6ccccc65)c4)c4ccccc43)[C@@H]2C)cc1	0.818
CC(C)(C)OC(=O)CC[C@@]12N=C(c3ccc(OCCCO)cc3)O[C@@H]1c1ccccc1N(Cc1ccccc1)C2=O	0.732
CC(C)N1CC=CC23O[C@@H]4/C=C\CCCOC(=O)C4[C@H]2C(=O)N(CCCO)[C@@H]3C1=O (stereo partly drawn)	-0.352
CC(C)(C)OC(=O)CC[C@@]1(C(=O)NCc2ccccc2)N=C(c2ccc(OCCCO)cc2)O[C@@H]1c1ccccc1CN=[N+]=[N-]	1.16
CC(C)C[C@@H]1NC(=O)[C@@]23C(=O)N[C@@H](Cc4ccccc4)C2[C@H](C)[C@@]2(C)O[C@H]2C3/C=C/CC/C=C/CNC(=O)[C@@H](C)NC1=O (stereo partly drawn)	1.39
CC(C)CNC(=O)[C@@H]1c2ccccc2C(=O)N(Cc2ccc(OC(F)(F)F)cc2)[C@H]1c1ccc(CO)cc1	0.64
C=C(CCCC)/C(=C/C[C@@H](OC(=O)c1ccncc1)c1ccc(OCCO)cc1)c1cnc2ccccc2c1	1.24
CCOC(=O)C[C@H]1[C@H](OC(=O)c2cc3ccccc3oc2=O)[C@@H](NC(=O)c2ccccc2)c2cc(OCCCO)ccc2N1C(=O)Cc1ccc(OC)cc1	0.905
NC(=O)NCC#Cc1ccc2c(c1)[C@]1(C(=O)N2)[C@H](c2ccc(OCCO)cc2)N2[C@H](c3ccccc3)[C@H](c3ccccc3)OC(=O)[C@H]2[C@@H]1C(=O)Nc1nc2ccccc2s1	0.178
COc1ccc(C#Cc2ccc3c(c2)[C@]2(C(=O)N3)[C@H](c3ccc(O)cc3)N3[C@H](c4ccccc4)[C@H](c4ccccc4)OC(=O)[C@H]3[C@@H]2C(N)=O)cc1	-0.425
COc1ccc([Si](C)(C)[C@@H]2[C@@H](CC(=O)N3CCC[C@H]3CO)O[C@]3(C(=O)N(Cc4ccc(I)cc4)c4ccccc43)[C@H]2C)cc1	0.637
CN1C=C(C(=O)OCCS(C)(=O)=O)C(C(=O)OCCS(C)(=O)=O)=CC(CCCO)=CC1c1cccs1 (stereo not drawn)	0.395
CC(C)[C@@H](C(=O)O)n1cc(-c2ccccn2)nn1	0.0739
O=C(O)[C@H]1C[C@H]2C(=O)N[C@@H](Cc3ccccc3)C(=O)N2[C@H]1c1ccc(O)cc1	-0.349
CC(C)C(CO)N1C(=O)[C@@H]2C3C(=O)OCCC/C=C\[C@H]3OC23C=CCN(C(C)C)C(=O)[C@@H]13 (stereo partly drawn)	-0.547
